Experiment: qHTS assay for small molecule activators of the nuclear factor-kappa B (NF-kB) signaling pathway (AID 651749); note: % of control where 0% means no effect
Conditions: NF-kB-bla ME-180 cells, beta-lactamase FRET ratio, 16 h; stronger effect = higher value
Results filed as inconclusive are left out.
Answer each item with its documented activation.
Number only, in %; omit the unit.

Query: Look up activation: `CC(=O)CC(=O)Nc1ccc(C)cc1C`
Reply: 0.179

Query: Look up activation: Cn1c(=O)[nH]c(=O)n(C2CCC(O)CC2)c1=O (centres undefined)
Reply: -0.274

Query: Look up activation: `O=S(=O)(O)c1ccc(N=Nc2cc(S(=O)(=O)O)c3ccccc3c2O)c2ccccc12`
Reply: 0.356

Query: Look up activation: `O=S(=O)(O)c1ccc(N=Nc2c(O)ccc3cc(S(=O)(=O)O)ccc23)cc1`
Reply: -0.945

Query: Look up activation: `CCCOC(=O)c1ccc(C(=O)OCCC)nc1`
Reply: 1.57

Query: Look up activation: `CCOc1ccc(NC(=O)OC(C)C)cc1OCC`
Reply: -0.916

Query: Look up activation: CC1=CC2C3CC(C=C3C)C2C1 (centres undefined)
Reply: -0.782

Query: Look up activation: `C=C[Si](C)(C)O[Si](C)(C)C=C`
Reply: -0.794

Query: Look up activation: `CCOCCOCCOCCO`
Reply: -1.33

Query: Look up activation: CC1(C)CC(N)CC(C)(CN)C1 (centres undefined)
Reply: -0.653

Query: Look up activation: `CC(C)OC(=O)c1ccccc1C(=O)OC(C)C`
Reply: -2.02

Query: Look up activation: CNc1nc(=O)n(C2CCC(O)CC2)c(=O)n1C (centres undefined)
Reply: -0.329

Query: Look up activation: `CC(C)(C)c1cccc(C(C)(C)C)c1O`
Reply: -0.872

Query: Look up activation: `Cn1c(=O)[nH]c(=O)n(C2CCCCC2)c1=O`
Reply: -1.18

* * *

Biological target: Tumor susceptibility gene 101 protein (Homo sapiens)
Experiment: qHTS Assay for Iinhibitors of HIV-1 Budding by Blocking the Interaction of PTAP/TSG101: Hit Validation (AID 651600); note: nearly all actives have a fitted effect of over 70% in size
Conditions: PTAP peptide/TSG101 UEV interaction, biochemical assay; series mostly up to 57.5 µM
Records with an inconclusive call do not appear. The source made the active and inactive calls. Calls follow the shape of the dose curve; as a rule, active = well fitted inhibition curve with a large enough effect; inconclusive = small, poorly fitted or top-dose-only effect; inactive = no such curve, though single readings can be large or run the other way.
Respond only with the outcome that fits, drawn from active, inactive

Query: State the result this test recorded for CN1CC=C2C(C#N)=C(N)C(C#N)(C#N)C(Cc3ccccc3)C2C1 (stereo unspecified) .
Reply: inactive

Query: State the result this test recorded for `CCOC(=O)Cn1c(=O)c(-c2cc(Br)ccc2N)nc2ccccc21` .
Reply: inactive

Query: State the result this test recorded for Cc1cc2c(cc1C)NC(c1c(C)n(C)n(-c3ccccc3)c1=O)C1=C(CC(C)(C)CC1=O)N2 (stereo unspecified) .
Reply: inactive

Query: State the result this test recorded for `Clc1ccc(-c2nnc3sc(-c4ccc(Br)o4)nn23)cc1` .
Reply: active

Query: State the result this test recorded for `Cc1cc[n+](-c2[nH]c(=O)sc2/C=N/NC([S-])=Nc2ccccc2)cc1` .
Reply: active

Query: State the result this test recorded for `Nc1c(C(=O)c2cccs2)sc2nsc(SCCN3CCCCC3)c12` .
Reply: active

* * *

Assay: qHTS for Inhibitors of WRN Helicase: Thiazole Orange DNA Binding Counterscreen (AID 720499);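 note: drop in dye fluorescence marks compound binding to DNA; % is set by controls: 0 for no effect and ±100 for the full control effect; nearly all actives have a fitted effect of over 60% in size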
Conditions: thiazole orange DNA binding displacement, fluorescence; series mostly up to 57.1 µM
This is one part of the list. Records with an inconclusive call do not appear. Active and inactive are the calls of the source. Calls follow the shape of the dose curve; as a rule, active = well fitted inhibition curve with a large enough effect; inconclusive = small, poorly fitted or top-dose-only effect; inactive = no such curve, though single readings can be large or run the other way.
METRIC: outcome

[[record]]
compound = "N#C/C(=C\\C1=C(N2CCOCC2)C(=C\\c2ccccc2)/CC1)C(=O)Nc1ccccc1F"
value_observed = "inactive"

[[record]]
compound = "CC(=O)N(C1=C(Cl)C(=O)c2ccccc2C1=O)c1ccc(C(=O)O)cc1"
value_observed = "inactive"

[[record]]
compound = "Cc1c(CC(=O)N2CCN(C(=O)C3COc4ccccc4O3)CC2)c(=O)oc2c(O)c(O)ccc12 (stereo not drawn)"
value_observed = "inactive"

